Target: human S1PR5 receptor (Homo sapiens)
Construct: host or cells: CHO-K1
Sequence (Q9H228 whole entry): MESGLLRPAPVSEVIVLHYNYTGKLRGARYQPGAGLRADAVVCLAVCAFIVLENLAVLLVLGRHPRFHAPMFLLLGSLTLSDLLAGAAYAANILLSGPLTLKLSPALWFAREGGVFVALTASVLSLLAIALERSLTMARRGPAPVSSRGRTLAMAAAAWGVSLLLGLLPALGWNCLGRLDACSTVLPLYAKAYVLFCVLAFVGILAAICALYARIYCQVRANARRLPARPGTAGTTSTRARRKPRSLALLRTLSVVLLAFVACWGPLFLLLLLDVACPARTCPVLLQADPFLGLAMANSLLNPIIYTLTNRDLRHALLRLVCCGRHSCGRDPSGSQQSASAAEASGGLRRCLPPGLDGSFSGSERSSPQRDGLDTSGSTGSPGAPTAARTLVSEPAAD
Assay: Method 1: intracellular Ca2+ release (FLIPR, Calcium 5) in recombinant CHO-K1 cells
Type: cell-based
Conditions: agonist potency, determined with method 1 (symbols A-D); read-out: S1P5 EC50 range
Method: Agonistic activity was measured using two different methods, described below. Method 1. Intracellular Ca^2+ Release Agonist potency and intrinsic activity was assessed by measurement of intracellular Ca^2+ release. […]
measurement_type: EC50

Some molecules with known EC50 results, for comparison:
O=C(O)CN1CCc2nc(-c3ccc(OCc4ccccc4)cc3)ncc2C1: 0.1 to 1 µM
CC(CC(=O)O)CN1CCc2nc(-c3ccc(OCc4ccc(C(F)(F)F)cc4)cc3F)ncc2C1 (centres unmarked): 0.01 to 0.1 µM
CC(CC(=O)O)CN1CCc2nc(-c3ccc(OCc4ccc(F)c(F)c4)cc3)ncc2C1 (centres unmarked): < 0.01 µM

Inquiry: What measured EC50 goes with Cc1cc(-c2ccc3c(n2)CCN(CCC(=O)O)C3)ccc1OCc1ccc(Cl)cc1 ?
Reply text: < 0.01 µM

Inquiry: What measured EC50 goes with CC(CC(=O)O)CN1CCc2nc(-c3ccc(CCc4cccc(Cl)c4)cc3F)ncc2C1 (centres unmarked) ?
Reply text: 0.1 to 1 µM

Inquiry: What measured EC50 goes with Cc1cc(-c2ncc3c(n2)CCN(CC(C)CC(=O)O)C3)ccc1CCc1cccc(Cl)c1 (centres unmarked) ?
Reply text: 1 to 10 µM

Inquiry: What measured EC50 goes with O=C(O)C1CC(N2CCc3nc(C#Cc4ccc(Cl)cc4)ccc3C2)C1 (centres unmarked) ?
Reply text: 1 to 10 µM

Inquiry: What measured EC50 goes with CC(CN1CCc2nc(-c3ccc(OCc4cc(Cl)cc(Cl)c4)cc3)ncc2C1)C(=O)O (single isomer, unassigned) [Compound 20] ?
Reply text: 0.01 to 0.1 µM

---

target: human S1PR1 receptor (Homo sapiens, UniProt P21453); test: Method 1: intracellular Ca2+ release (FLIPR, Calcium 5) in recombinant CHO-K1 cells; details: (1): determined with method 1; read-out: S1P1 EC50
Sequence (P21453 whole entry): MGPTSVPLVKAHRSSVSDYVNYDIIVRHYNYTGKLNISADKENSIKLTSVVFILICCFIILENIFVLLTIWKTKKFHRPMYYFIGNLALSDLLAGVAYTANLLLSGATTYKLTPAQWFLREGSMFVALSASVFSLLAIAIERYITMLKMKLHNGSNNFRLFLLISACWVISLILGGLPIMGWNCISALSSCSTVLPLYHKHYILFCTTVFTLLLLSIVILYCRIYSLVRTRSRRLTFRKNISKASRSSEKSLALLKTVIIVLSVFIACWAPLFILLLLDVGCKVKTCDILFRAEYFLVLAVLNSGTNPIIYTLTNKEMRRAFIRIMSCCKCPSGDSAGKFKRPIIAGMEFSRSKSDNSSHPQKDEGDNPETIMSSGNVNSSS
Overview of reported EC50 across a group of molecules:

C[C@H](CC(=O)O)CN1CCc2nc(-c3ccc(C(F)(F)Cc4ccc(Cl)cc4)cc3)ncc2C1 (single isomer, unassigned): > 1000 nM
O=C(O)CCN1CCc2nc(-c3ccc(OCc4ccc(Cl)cc4)cc3)c(F)cc2C1: < 1000 nM
CC(CN1CCc2nc(-c3ccc(OCc4ccc(F)cc4)c(Cl)c3)ccc2C1)C(=O)O (centres unmarked): > 1000 nM
CC(C)c1ccc(C#Cc2ncc3c(n2)CCN(C2CC(C(=O)O)C2)C3)cc1 (centres unmarked): > 1000 nM

// next entry
Inquiry: What measured EC50 goes with O=C(O)C1CC(N2CCc3nc(C#Cc4cc(F)cc(F)c4)ncc3C2)C1 (centres unmarked) ?
Reply text: > 1000 nM

---

target: human S1PR5 receptor (Homo sapiens); construct: host or cells: CHO-K1; assay: Method 1: intracellular Ca2+ release (FLIPR, Calcium 5) in recombinant CHO-K1 cells; assay type: cell-based; conditions: agonist potency, determined with method 1 (symbols A-D); read-out: S1P5 EC50 range
pEC50: −log10 of the molar value.
measurement_type: pEC50

CC(C(=O)O)N1CCc2nc(-c3ccc(OCc4cccc(Cl)c4)cc3)ncc2C1 (stereo not drawn): 6.00 to 7.00
O=C(O)CCN1CCc2nc(-c3ccc(OCc4cccc(C(F)F)c4)cc3)ccc2C1: > 8.00
O=C(O)CCN1CCc2nc(-c3ccc(OCc4cccc(F)c4F)cc3)c(F)cc2C1: > 8.00

Inquiry: What measured pEC50 goes with O=C(O)C1CC(N2CCc3nc(C#Cc4ccccc4)c(F)cc3C2)C1 (stereo not drawn) ?
Reply text: 5.00 to 6.00

Inquiry: What measured pEC50 goes with O=C(O)CCN1CCc2cc(-c3ccc(OCc4cccc(Cl)c4)cc3)ncc2C1 ?
Reply text: > 8.00

---

Overview of reported EC50 across a group of molecules:
molecular target: human S1PR4 receptor (Homo sapiens, UniProt O95977); construct: host or cells: CHO-K1; experiment: Method 1: intracellular Ca2+ release (FLIPR, Calcium 5) in recombinant CHO-K1 cells; type: cell-based; conditions: (1): determined with method 1; read-out: S1P4 EC50
Sequence (O95977 whole entry): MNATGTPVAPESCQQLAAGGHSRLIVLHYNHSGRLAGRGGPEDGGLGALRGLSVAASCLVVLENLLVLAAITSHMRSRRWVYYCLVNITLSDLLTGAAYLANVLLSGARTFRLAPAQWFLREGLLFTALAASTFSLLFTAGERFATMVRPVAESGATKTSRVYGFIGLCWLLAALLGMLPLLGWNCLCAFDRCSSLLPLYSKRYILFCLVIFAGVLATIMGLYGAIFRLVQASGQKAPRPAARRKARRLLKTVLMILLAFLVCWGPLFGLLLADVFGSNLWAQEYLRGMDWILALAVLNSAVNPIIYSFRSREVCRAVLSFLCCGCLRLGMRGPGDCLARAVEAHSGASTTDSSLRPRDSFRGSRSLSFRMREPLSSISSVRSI
Structures can show the parent of a compound that is named as a salt.

O=C(O)CN1CCc2nc(-c3ccc(OCc4c(Cl)cccc4Cl)cc3)ncc2C1 [Compound 34]: < 1000 nM
CC(CC(=O)O)CN1CCc2nc(-c3ccc(CCc4ccc(Cl)cc4)cc3F)ncc2C1 (centres unmarked) [Compound 255]: > 1000 nM
O=C(O)C1CC(N2CCc3nc(C#Cc4ccccc4Cl)ccc3C2)C1 (centres unmarked) [Compound 126]: > 1000 nM
CC(CC(=O)O)CN1CCc2nc(-c3ccc(OCc4cccc(Cl)c4)cc3F)ncc2C1 (centres unmarked) [Compound 232]: > 1000 nM
O=C(O)CCN1CCc2cc(OCc3c(Cl)cccc3Cl)ncc2C1 [Compound 219, hydrochloride]: > 1000 nM
O=C(O)CN1CCc2nc(-c3ccc(OCc4cccc(Cl)c4)cc3)ncc2C1 [Compound 32]: > 1000 nM
Cc1cccc(C)c1COc1ccc(-c2ncc3c(n2)CCN(CC(=O)O)C3)cc1 [Compound 33]: < 1000 nM
CC(CCC(=O)O)N1CCc2nc(-c3ccc(Cc4ccccc4)cc3)ncc2C1 (centres unmarked) [Compound 214]: > 1000 nM

Inquiry: Form field: EC50 recorded for CC(CC(=O)O)CN1CCc2nc(-c3ccc(OCc4cccc(Cl)c4)cc3)cnc2C1 (centres unmarked) [Compound 209] with human S1PR4 receptor (Homo sapiens, UniProt O95977) (enter value)
Reply text: > 1000 nM

---

Target: human S1PR5 receptor (Homo sapiens)
Construct: host or cells: CHO-K1
Assay: Method 1: intracellular Ca2+ release (FLIPR, Calcium 5) in recombinant CHO-K1 cells
Type: cell-based
Settings: agonist potency, determined with method 1 (symbols A-D); read-out: S1P5 EC50 range
Procedure: Agonistic activity was measured using two different methods, described below. Method 1. Intracellular Ca^2+ Release Agonist potency and intrinsic activity was assessed by measurement of intracellular Ca^2+ release. […]
measurement_type: EC50

C[C@@H](CC(=O)O)CN1CCc2nc(-c3ccc(C(F)(F)Cc4ccc(Cl)cc4)cc3)ncc2C1 (single isomer, unassigned) [Compound 266]: 10 to 100 nM
Cc1cc(-c2ncc3c(n2)CCN(C[C@@H](C)CC(=O)O)C3)ccc1OCc1ccccc1 [Compound 261]: 10 to 100 nM
Cc1cc(COc2ccc(-c3ccc4c(n3)CCN(CCC(=O)O)C4)cc2)cc(OC(F)(F)F)c1 [Compound 160]: 10 to 100 nM

Inquiry: What measured EC50 goes with CC(CC(=O)O)CN1CCc2nc(-c3ccc(OCc4ccccc4C(F)(F)F)cc3F)ncc2C1 (stereo not shown) [Compound 260] ?
Reply text: 10 to 100 nM

Inquiry: What measured EC50 goes with Cc1ccc(COc2ccc(-c3ncc4c(n3)CCN(CC(C)CC(=O)O)C4)c(F)c2)c(C)c1 (stereo not shown) [Compound 304] ?
Reply text: 100 to 1000 nM

Inquiry: What measured EC50 goes with O=C(O)C1CC(N2CCc3nc(-c4cccc(OCc5ccccc5)c4)cnc3C2)C1 (stereo not shown) [Compound 208] ?
Reply text: 1000 to 10000 nM

Inquiry: What measured EC50 goes with O=C(O)C1CC(N2CCc3nc(-c4ccc(OCc5ccc(Cl)cc5)cc4)ncc3C2)C1 (stereo not shown) [Compound 287] ?
Reply text: 100 to 1000 nM

---

Target: human S1PR4 receptor (Homo sapiens)
Assay: Method 1: intracellular Ca2+ release (FLIPR, Calcium 5) in recombinant CHO-K1 cells
Conditions: (1): determined with method 1; read-out: S1P4 EC50
Description: Agonistic activity was measured using two different methods, described below. Method 1. Intracellular Ca^2+ Release Agonist potency and intrinsic activity was assessed by measurement of intracellular Ca^2+ release. […]
pEC50: −log10 of the molar value.
Overview of reported pEC50 across a group of compounds:

Some compounds with known pEC50 results, for comparison:
Cc1cc(-c2ncc3c(n2)CCN(CC(C)CC(=O)O)C3)ccc1OCc1ccc(C(C)C)cc1 (centres unmarked): < 6.00
CC(CC(=O)O)CN1CCc2nc(-c3ccc(CCc4cccc(Cl)c4)cc3F)ncc2C1 (centres unmarked): < 6.00
CC(CC(=O)O)CN1CCc2nc(C3CC(OCc4ccccc4)C3)ncc2C1 (centres unmarked): < 6.00
CC(CC(=O)O)CN1CCc2nc(-c3ccc(/C=C/c4ccc(Cl)cc4)cc3)ncc2C1 (centres unmarked): < 6.00
O=C(O)CCN1CCc2nc(-c3ccc(OCc4cccc(C(F)F)c4)cc3)ccc2C1: < 6.00

Inquiry: What measured pEC50 goes with CCc1ccccc1COc1ccc(-c2ncc3c(n2)CCN(CC(C)CC(=O)O)C3)cc1C (centres unmarked) ?
Reply text: > 6.00

Inquiry: What measured pEC50 goes with Cc1cc(-c2ncc3c(n2)CCN(CC(C)CC(=O)O)C3)ccc1OCc1cccc(F)c1F (centres unmarked) ?
Reply text: < 6.00

Inquiry: What measured pEC50 goes with CC(C(=O)O)N1CCc2nc(-c3ccc(OCc4cc(F)cc(F)c4)cc3)ncc2C1 (centres unmarked) ?
Reply text: < 6.00
